Values compiled from the supplement of paper PMC12632987.

Target: T1, USP38, Q8NB14
T1 chain: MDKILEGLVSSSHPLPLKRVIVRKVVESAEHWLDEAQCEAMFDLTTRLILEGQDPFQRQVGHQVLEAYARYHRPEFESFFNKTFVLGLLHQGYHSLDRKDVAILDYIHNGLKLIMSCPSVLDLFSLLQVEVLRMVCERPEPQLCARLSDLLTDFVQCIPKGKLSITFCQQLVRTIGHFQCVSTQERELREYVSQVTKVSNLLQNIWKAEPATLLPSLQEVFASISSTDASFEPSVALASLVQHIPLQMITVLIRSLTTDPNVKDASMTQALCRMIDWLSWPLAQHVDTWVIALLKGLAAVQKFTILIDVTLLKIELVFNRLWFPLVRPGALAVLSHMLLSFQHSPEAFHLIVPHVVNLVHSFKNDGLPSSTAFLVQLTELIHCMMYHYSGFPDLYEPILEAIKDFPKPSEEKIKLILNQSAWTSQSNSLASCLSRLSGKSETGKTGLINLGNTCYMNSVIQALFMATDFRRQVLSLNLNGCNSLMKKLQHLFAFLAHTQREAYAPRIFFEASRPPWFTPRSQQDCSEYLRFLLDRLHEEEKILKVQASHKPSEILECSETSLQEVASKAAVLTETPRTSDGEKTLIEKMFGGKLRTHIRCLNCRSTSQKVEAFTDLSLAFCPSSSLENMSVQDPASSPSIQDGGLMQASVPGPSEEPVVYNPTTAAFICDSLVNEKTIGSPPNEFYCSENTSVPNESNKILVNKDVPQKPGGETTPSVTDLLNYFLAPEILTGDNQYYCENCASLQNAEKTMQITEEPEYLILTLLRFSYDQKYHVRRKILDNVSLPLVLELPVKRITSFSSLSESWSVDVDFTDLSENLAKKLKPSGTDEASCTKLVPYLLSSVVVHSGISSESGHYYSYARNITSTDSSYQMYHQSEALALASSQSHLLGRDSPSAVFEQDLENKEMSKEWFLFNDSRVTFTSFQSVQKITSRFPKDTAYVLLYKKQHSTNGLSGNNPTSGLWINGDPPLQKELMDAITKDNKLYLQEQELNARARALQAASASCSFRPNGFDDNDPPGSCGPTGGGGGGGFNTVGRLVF
Assay: median log2 fold change of GCK-ALFA target abundance (FLAG IP / Myc IP barcode read proportion) (log2 ratio); each designed protein is fused to an ALFA-tag nanobody in HEK293 cells to bring the named protein to FLAG-tagged glucokinase (GCK); Myc marks an untargeted standard; higher = target protein stabilised (more abundant)
Settings: target protein: 3xFLAG-MCP-GCK-ALFA reporter; HEK293 landing pad (RPLP)
Would you mind telling me the reported median log2 fold change of each entry?
One number for each entry.

Example entries and their recorded answers appear below.
{"Binder": "usp_38_diff_out_22_74_482 (protein) SAEAEAVAATKAEIEKLTAETLKKLDELYKEAKKYIEAGDYKNARRKLAEMDDLVTETVIYLNKVALAEGAVHDLALAKANEIRKKATEINEELEKLLKE", "median log2 fold change": 0.312}
{"Binder": "usp_38_diff_out_18_14_350 (protein) SEELEKQKLSNLKSLKEEVKKNTERLKKIVEKLKDDPESALSLLDTRIQALEGVIKYAEEVLKEAEEKGWEELAKAAKELIKEAEKAKKEAKELKKKLLE", "median log2 fold change": -0.185}
{"Binder": "usp_38_diff_out_17_26_242 (protein) EAEERRREARERLERLREETERALEEIDRLIAEGKFEEARKLLEETVRKATEEMTEILELAADDPELMEEALRAWDEISDRLAARYRELQAAIAAAKAAA", "median log2 fold change": 0.467}
{"Binder": "usp_38_diff_out_16_109_178 (protein) SAEDEANVEYAKAVIENLEKLAEEAEAELKRLQARGASAEVLAAYQKLADLAKEAAERLKKALAEGKDLRAIADEEWDRVGAAAAEAAELRQQEVRARSA", "median log2 fold change": 0.375}
{"Binder": "usp_38_diff_out_15_85_153 (protein) SPEEIKKEIEREIEEAERLIEEARRLLEDPEAPLEEVREVLDEAARHLGRAQHLARELRRLSPEYREFVKEAEKRLDELVDELEELAREAHLREAEELEA", "median log2 fold change": -0.141}

Give one value of median log2 fold change per listed binder.
1. usp_38_diff_out_1_101_7 (protein) LEEELKKALEEFNETIDKAIKVYEEIAKLYKKMGKEEKAEKAERQRKALETWREDSTAFIEELAKEDLESALELAKLALENAKTILKEAEEELKKVKAEE
2. usp_38_diff_out_1_153_29 (protein) SELEELKARVEKITKEAEALKKEAEKLIADGTATREKVDALADKLGALAVELREIKSKAAESGEYYKKLKPLFDKAEAALNEAVDALNRAATLVFEREAA
3. usp_38_diff_out_18_14_256 (protein) SEELTKAEISNLESLKKSVKEDTERVIRLLEKNKDDPERVKRIYERAQRNLAGVETYAKEVLERAKKEGDEELAKAAEELLKEIEEARKRIEEKVKEVLA
4. usp_38_diff_out_18_14_292 (protein) SEELSEAEKSVLETLKKDVREDTERTIRLLEKVKDDPERVKRVVERARRNLAGVRAYAEEVKERAEKRGDEETVKAAEELLKEVEKAEERIEKAEEEVLK

Marked response:
1. -0.366
2. -0.161
3. 0.00955
4. 0.0826
